target: GABA transporter 2 (Mus musculus) (UniProt P31651); assay: Inhibition of mouse GAT2 expressed in HEK293 cells assessed as remaining [3H]GABA uptake at 1 mM by [3H]GABA uptake assay; assay type: cell-based
Sequence (P31651 whole entry): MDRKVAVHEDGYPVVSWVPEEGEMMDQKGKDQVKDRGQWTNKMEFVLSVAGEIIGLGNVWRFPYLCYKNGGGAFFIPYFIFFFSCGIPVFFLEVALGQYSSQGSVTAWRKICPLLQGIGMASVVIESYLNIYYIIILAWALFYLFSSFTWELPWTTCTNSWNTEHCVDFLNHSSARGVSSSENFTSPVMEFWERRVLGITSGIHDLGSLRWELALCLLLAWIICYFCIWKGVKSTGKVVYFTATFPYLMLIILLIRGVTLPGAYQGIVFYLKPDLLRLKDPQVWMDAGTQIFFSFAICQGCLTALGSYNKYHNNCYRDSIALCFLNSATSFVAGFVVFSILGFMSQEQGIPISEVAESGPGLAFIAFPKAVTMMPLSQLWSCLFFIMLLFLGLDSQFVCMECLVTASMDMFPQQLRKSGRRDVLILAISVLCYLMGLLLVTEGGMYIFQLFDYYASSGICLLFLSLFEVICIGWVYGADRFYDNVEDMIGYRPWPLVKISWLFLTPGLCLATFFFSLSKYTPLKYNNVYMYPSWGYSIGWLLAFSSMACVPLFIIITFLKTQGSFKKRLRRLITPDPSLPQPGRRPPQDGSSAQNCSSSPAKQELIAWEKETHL
1 if Activity is below 80%. -1 if not; exact matches included in -1.

[[record]]
compound = "O=C(O)C[C@@H]1CCCN1"
discrete_label = 1

[[record]]
compound = "N[C@H](C(=O)O)[C@H]1CCCN1 (racemic)"
discrete_label = 1

[[record]]
compound = "CC(C(=O)O)[C@H]1CCCN1 (mixture of isomers)"
discrete_label = 1

[[record]]
compound = "O=C(O)[C@@H](O)[C@H]1CCCN1 (racemic)"
discrete_label = -1

[[record]]
compound = "O=C(O)C1([C@H]2CCCN2)CCC1 (racemic)"
discrete_label = -1

[[record]]
compound = "CC(C)(C(=O)O)[C@H]1CCCN1 (racemic)"
discrete_label = -1


---

Parameter: Activity. Scope: all listed entries.
molecular target: GABA transporter 3 (Mus musculus); test: Inhibition of mouse GAT3 expressed in HEK293 cells assessed as remaining [3H]GABA uptake at 100 uM by [3H]GABA uptake assay; format: cell-based
endpoint: Activity (%)

[[record]]
compound = "N[C@H](C(=O)O)[C@H]1CCCN1CCC=C(c1ccccc1)c1ccccc1 (racemic)"
unit_of_measure = "%"
meas_value = 71

[[record]]
compound = "Cc1ccsc1C(=CCCN1CCC[C@@H]1[C@@H](O)C(=O)O)c1sccc1C (racemic)"
unit_of_measure = "%"
meas_value = 90

[[record]]
compound = "O=C(O)[C@H](O)[C@H]1CCCN1CCC=C(c1ccccc1)c1ccccc1 (racemic)"
unit_of_measure = "%"
meas_value = 97

[[record]]
compound = "COc1ccc(C(OCCN2CCC[C@@H]2[C@H](O)C(=O)O)(c2ccc(OC)cc2)c2ccc(OC)cc2)cc1 (racemic)"
unit_of_measure = "%"
meas_value = 70

[[record]]
compound = "Cc1ccsc1C(=CCCN1CCC[C@@H]1[C@H](N)C(=O)O)c1sccc1C (racemic)"
unit_of_measure = "%"
meas_value = 63


---

molecular target: GABA transporter 3 (Mus musculus, UniProt P31649); experiment: Inhibition of mouse GAT3 expressed in HEK293 cells by [3H]GABA uptake assay
Sequence (P31649 whole entry): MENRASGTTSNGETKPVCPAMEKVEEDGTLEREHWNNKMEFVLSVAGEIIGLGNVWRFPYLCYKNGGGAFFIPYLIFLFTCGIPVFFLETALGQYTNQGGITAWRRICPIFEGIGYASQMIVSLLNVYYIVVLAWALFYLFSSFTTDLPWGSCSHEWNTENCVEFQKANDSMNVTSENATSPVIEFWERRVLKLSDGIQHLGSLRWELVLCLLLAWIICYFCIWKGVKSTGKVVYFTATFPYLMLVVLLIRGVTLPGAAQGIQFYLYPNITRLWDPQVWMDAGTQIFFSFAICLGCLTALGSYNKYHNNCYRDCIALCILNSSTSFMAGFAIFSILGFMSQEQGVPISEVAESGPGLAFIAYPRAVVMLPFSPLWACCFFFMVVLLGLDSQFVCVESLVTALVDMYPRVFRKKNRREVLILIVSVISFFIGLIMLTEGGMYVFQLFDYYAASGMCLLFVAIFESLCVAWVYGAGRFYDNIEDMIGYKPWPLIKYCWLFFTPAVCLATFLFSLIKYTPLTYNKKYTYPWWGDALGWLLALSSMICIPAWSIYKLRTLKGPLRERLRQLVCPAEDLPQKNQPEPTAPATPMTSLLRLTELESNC
Yes if IC50 is below 100 µM. No if not; exact matches included in No.

[[record]]
compound = "N[C@@H](C(=O)O)[C@H]1CCCN1 (racemic)"
discrete_label = "Yes"

[[record]]
compound = "COc1ccc(C(OCCN2CCC[C@@H]2[C@@H](O)C(=O)O)(c2ccc(OC)cc2)c2ccc(OC)cc2)cc1 (racemic)"
discrete_label = "Yes"

[[record]]
compound = "N[C@@H](C(=O)O)[C@H]1CCCN1CCC=C(c1ccccc1)c1ccccc1 (racemic)"
discrete_label = "Yes"

[[record]]
compound = "O=C(O)[C@@H](O)[C@H]1CCCN1 (racemic)"
discrete_label = "No"

[[record]]
compound = "O=C(O)[C@H](O)[C@H]1CCCN1 (racemic)"
discrete_label = "Yes"

[[record]]
compound = "O=C(O)C[C@H]1CCCN1"
discrete_label = "No"

[[record]]
compound = "O=C(O)C[C@@H]1CCCN1"
discrete_label = "No"

[[record]]
compound = "Cc1ccsc1C(=CCCN1CCC[C@@H]1[C@@H](N)C(=O)O)c1sccc1C (racemic)"
discrete_label = "Yes"

[[record]]
compound = "Cc1ccsc1C(=CCCN1CCC[C@@H]1[C@H](O)C(=O)O)c1sccc1C (racemic)"
discrete_label = "Yes"

[[record]]
compound = "CC(C(=O)O)[C@H]1CCCN1 (mixture of isomers)"
discrete_label = "No"


---

biological target: GABA transporter 4 (Mus musculus, UniProt P31650); test: Inhibition of mouse GAT4 expressed in HEK293 cells by [3H]GABA uptake assay
Sequence (P31650 whole entry): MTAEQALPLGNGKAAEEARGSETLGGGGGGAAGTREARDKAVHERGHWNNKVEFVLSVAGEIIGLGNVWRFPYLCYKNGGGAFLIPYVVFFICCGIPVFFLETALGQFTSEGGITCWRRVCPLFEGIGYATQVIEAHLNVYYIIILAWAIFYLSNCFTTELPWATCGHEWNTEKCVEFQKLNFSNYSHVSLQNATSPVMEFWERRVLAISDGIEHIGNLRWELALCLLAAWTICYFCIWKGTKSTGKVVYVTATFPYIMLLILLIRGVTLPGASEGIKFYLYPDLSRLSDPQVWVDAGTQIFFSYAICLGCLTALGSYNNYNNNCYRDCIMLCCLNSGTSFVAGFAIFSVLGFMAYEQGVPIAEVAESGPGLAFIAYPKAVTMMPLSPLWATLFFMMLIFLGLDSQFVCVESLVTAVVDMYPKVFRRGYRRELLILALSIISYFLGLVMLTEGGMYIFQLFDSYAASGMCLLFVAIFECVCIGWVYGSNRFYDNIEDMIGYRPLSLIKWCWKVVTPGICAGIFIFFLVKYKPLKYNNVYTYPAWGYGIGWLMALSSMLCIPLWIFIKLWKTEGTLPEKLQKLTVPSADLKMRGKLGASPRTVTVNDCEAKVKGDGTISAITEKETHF
pIC50: −log10 of the molar value.
Parameter: pIC50. Scope: all listed entries.
endpoint: pIC50

[[record]]
compound = "N[C@H](C(=O)O)[C@H]1CCCN1 (racemic)"
endpoint = "pIC50"
meas_value = 3.43

[[record]]
compound = "COc1ccc(C(OCCN2CCC[C@@H]2[C@@H](O)C(=O)O)(c2ccc(OC)cc2)c2ccc(OC)cc2)cc1 (racemic)"
endpoint = "pIC50"
meas_value = 5.24

[[record]]
compound = "N[C@@H](C(=O)O)[C@H]1CCCN1CCC=C(c1ccccc1)c1ccccc1 (racemic)"
endpoint = "pIC50"
meas_value = 4.76

[[record]]
compound = "N[C@@H](C(=O)O)[C@H]1CCCN1 (racemic)"
endpoint = "pIC50"
meas_value = 4.67

[[record]]
compound = "O=C(O)C[C@H]1CCCN1"
endpoint = "pIC50"
meas_value = 2.95

[[record]]
compound = "Cc1ccsc1C(=CCCN1CCC[C@@H]1[C@@H](N)C(=O)O)c1sccc1C (racemic)"
endpoint = "pIC50"
meas_value = 4.50

[[record]]
compound = "O=C(O)C[C@@H]1CCCN1"
endpoint = "pIC50"
meas_value = 3.51

[[record]]
compound = "Cc1ccsc1C(=CCCN1CCC[C@@H]1[C@H](N)C(=O)O)c1sccc1C (racemic)"
endpoint = "pIC50"
meas_value = 4.00

[[record]]
compound = "CC(C(=O)O)[C@H]1CCCN1 (mixture of isomers)"
endpoint = "pIC50"
meas_value = 3.47

[[record]]
compound = "COc1ccc(C(OCCN2CCC[C@@H]2[C@H](O)C(=O)O)(c2ccc(OC)cc2)c2ccc(OC)cc2)cc1 (racemic)"
endpoint = "pIC50"
meas_value = 5.18

[[record]]
compound = "O=C(O)[C@H](O)[C@H]1CCCN1 (racemic)"
endpoint = "pIC50"
meas_value = 4.85


---

molecular target: Sodium- and chloride-dependent GABA transporter 1 (Mus musculus); experiment: Inhibition of mouse GAT1 expressed in HEK293 cells by [3H]GABA uptake assay
pIC50: −log10 of the molar value.
Criterion: pIC50 meeting or surpassing 4. Met: Criterion met. Not met: Criterion not met.

[[record]]
molecule = "O=C(O)C[C@@H]1CCCN1"
discrete_label = "Criterion not met"

[[record]]
molecule = "Cc1ccsc1C(=CCCN1CCC[C@@H]1[C@@H](O)C(=O)O)c1sccc1C (racemic)"
discrete_label = "Criterion met"

[[record]]
molecule = "N[C@H](C(=O)O)[C@H]1CCCN1CCC=C(c1ccccc1)c1ccccc1 (racemic)"
discrete_label = "Criterion met"

[[record]]
molecule = "Cc1ccsc1C(=CCCN1CCC[C@@H]1[C@@H](N)C(=O)O)c1sccc1C (racemic)"
discrete_label = "Criterion met"

[[record]]
molecule = "Cc1ccsc1C(=CCCN1CCC[C@@H]1[C@H](O)C(=O)O)c1sccc1C (racemic)"
discrete_label = "Criterion met"

[[record]]
molecule = "O=C(O)[C@H](O)[C@H]1CCCN1 (racemic)"
discrete_label = "Criterion not met"

[[record]]
molecule = "N[C@@H](C(=O)O)[C@H]1CCCN1CCC=C(c1ccccc1)c1ccccc1 (racemic)"
discrete_label = "Criterion met"

[[record]]
molecule = "O=C(O)[C@H](O)[C@H]1CCCN1CCC=C(c1ccccc1)c1ccccc1 (racemic)"
discrete_label = "Criterion met"

[[record]]
molecule = "O=C(O)[C@@H](O)[C@H]1CCCN1CCC=C(c1ccccc1)c1ccccc1 (racemic)"
discrete_label = "Criterion met"

[[record]]
molecule = "O=C(O)C[C@H]1CCCN1"
discrete_label = "Criterion not met"


---

target: Sodium- and chloride-dependent GABA transporter 1 (Mus musculus); experiment: Inhibition of mouse GAT1 expressed in HEK293 cells assessed as remaining [3H]GABA uptake at 1 mM by [3H]GABA uptake assay; assay type: cell-based
endpoint: Activity (%)

[[record]]
compound = "CC(C)(C(=O)O)[C@H]1CCCN1 (racemic)"
endpoint = "Activity"
meas_value = 83

[[record]]
compound = "O=C(O)[C@@H](O)[C@H]1CCCN1 (racemic)"
endpoint = "Activity"
meas_value = 53

[[record]]
compound = "CCC(C(=O)O)[C@H]1CCCN1 (mixture of isomers)"
endpoint = "Activity"
meas_value = 78

[[record]]
compound = "O=C(O)C1([C@H]2CCCN2)CCC1 (racemic)"
endpoint = "Activity"
meas_value = 92

[[record]]
compound = "CC(C(=O)O)[C@H]1CCCN1 (mixture of isomers)"
endpoint = "Activity"
meas_value = 83

[[record]]
compound = "N[C@H](C(=O)O)[C@H]1CCCN1 (racemic)"
endpoint = "Activity"
meas_value = 1


---

biological target: GABA transporter 2 (Mus musculus, UniProt P31651); assay: Inhibition of mouse GAT2 expressed in HEK293 cells by [3H]GABA uptake assay; type: cell-based
Sequence (P31651 whole entry): as the sequence (P31651 whole entry) above
pIC50: −log10 of the molar value.
endpoint: pIC50

[[record]]
compound = "N[C@@H](C(=O)O)[C@H]1CCCN1 (racemic)"
meas_value = 3.80

[[record]]
compound = "Cc1ccsc1C(=CCCN1CCC[C@@H]1[C@@H](N)C(=O)O)c1sccc1C (racemic)"
meas_value = 4.37

[[record]]
compound = "Cc1ccsc1C(=CCCN1CCC[C@@H]1[C@H](N)C(=O)O)c1sccc1C (racemic)"
meas_value = 4.00

[[record]]
compound = "O=C(O)[C@H](O)[C@H]1CCCN1 (racemic)"
meas_value = 3.77

